Where these numbers come from: patent US20090069320A1

# systemTested: mGluR5 receptor (Sus scrofa)
# Construct: 450 μg of protein from brain homogenate with 5 nM ^3[H]-MPEP; from tissue; host or cells: pig brain halves without medulla, cerebellum and pons
# Sequence (I3LUI7 19-1212): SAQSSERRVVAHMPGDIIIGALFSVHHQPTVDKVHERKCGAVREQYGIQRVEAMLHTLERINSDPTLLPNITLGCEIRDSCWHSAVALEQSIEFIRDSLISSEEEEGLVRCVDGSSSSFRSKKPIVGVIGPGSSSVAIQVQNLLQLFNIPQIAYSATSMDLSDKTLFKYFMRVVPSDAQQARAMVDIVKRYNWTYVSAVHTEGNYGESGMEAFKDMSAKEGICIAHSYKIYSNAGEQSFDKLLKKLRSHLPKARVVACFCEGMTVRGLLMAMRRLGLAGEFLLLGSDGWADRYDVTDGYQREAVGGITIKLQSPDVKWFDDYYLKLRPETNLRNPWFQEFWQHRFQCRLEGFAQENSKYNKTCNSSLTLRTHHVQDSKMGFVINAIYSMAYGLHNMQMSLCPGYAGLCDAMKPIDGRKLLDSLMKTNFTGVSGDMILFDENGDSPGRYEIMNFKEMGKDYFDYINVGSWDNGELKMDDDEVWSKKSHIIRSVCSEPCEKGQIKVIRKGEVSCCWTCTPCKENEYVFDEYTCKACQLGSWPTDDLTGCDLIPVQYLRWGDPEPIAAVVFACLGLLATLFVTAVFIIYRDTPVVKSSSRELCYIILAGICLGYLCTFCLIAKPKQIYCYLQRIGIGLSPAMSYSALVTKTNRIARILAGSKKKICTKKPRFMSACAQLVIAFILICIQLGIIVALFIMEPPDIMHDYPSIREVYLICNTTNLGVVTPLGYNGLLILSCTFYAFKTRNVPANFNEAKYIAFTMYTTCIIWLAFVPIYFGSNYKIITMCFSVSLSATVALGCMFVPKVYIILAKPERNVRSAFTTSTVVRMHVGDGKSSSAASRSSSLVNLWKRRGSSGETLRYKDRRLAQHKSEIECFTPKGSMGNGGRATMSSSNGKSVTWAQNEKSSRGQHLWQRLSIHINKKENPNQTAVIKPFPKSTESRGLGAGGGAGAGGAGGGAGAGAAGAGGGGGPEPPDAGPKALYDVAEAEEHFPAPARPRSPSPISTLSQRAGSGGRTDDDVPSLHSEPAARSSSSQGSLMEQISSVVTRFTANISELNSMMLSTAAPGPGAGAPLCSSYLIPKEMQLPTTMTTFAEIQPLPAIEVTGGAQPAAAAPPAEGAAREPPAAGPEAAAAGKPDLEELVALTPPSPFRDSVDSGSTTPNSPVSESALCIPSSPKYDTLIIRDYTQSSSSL
# assayNotes: [3H]-MPEP mGluR5 receptor binding assay (pig brain homogenate)
# conditionParameters: 10 μM compound, 5 nM [3H]-MPEP, read-out: % Inhibition of mGluR5 Receptor (pig) [^3H]-MPEP Bond at 10 μM
In this section we review reported inhibition at 10 µM values for a set of molecules.
Return type: number; implicit unit %.

Enquiry: Give me measured inhibition at 10 µM, please, for this molecule: Cc1nc(NC2CC2)c2cc(-c3ccc(F)c(CN(C(=O)c4ccc(F)cc4F)C4CC4)c3)ccc2n1
Return: 85

Enquiry: Give the reported inhibition at 10 µM for this molecule. O=C(c1ccno1)N(Cc1cccc(-c2cc(F)c3ncnc(NC4CC4)c3c2)c1)C1CC1
Return: 76

Enquiry: Give me measured inhibition at 10 µM, please, for this molecule: CCN(CC)c1ncnc2ccc(-c3cccc(CN(C)C(=O)Cc4ccccn4)c3)cc12
Return: 30

Enquiry: Annotate the molecule O=C(c1c(F)c(F)c(F)c(F)c1F)N(Cc1cccc(-c2cc(F)c3ncnc(NC4CC4)c3c2)c1)C1CC1 with its measured inhibition at 10 µM.
Return: 62

Enquiry: Supply inhibition at 10 µM value. Item: Cc1nc(C(=O)N(Cc2cc(-c3ccc4ncnc(NC(C)(C)C)c4c3)ccc2F)C2CC2)cs1
Return: 97
